- testedSystem: Human CD137 ECD (human)
- Sequence (chain, as listed by the source limits assumed): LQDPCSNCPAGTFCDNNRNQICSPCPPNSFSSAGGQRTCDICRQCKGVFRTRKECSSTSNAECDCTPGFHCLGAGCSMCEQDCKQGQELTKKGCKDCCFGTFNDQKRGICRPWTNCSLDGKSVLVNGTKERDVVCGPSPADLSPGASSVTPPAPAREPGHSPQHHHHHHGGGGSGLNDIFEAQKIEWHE
- runDescription: SPR, vs parent H183/L072
measure: fold change of affinity (fold)
Report only the number, with the unit fold understood.

dBBDu183H V95N / dBBDu072L (antibody, name in Kabat numbering, V domains shown) VH: QVQLVESGGGLVQPGRSLRLSCAASGFTFSNAWMHWVRQAPGKGLEWVAQIKDKGNAYAAYYAPSVKGRFTISRDDSKNSIYLQMNSLKTEDTAVYYCHYNHYASASTVLPAFGVDAWGQGTTVTVSS VL: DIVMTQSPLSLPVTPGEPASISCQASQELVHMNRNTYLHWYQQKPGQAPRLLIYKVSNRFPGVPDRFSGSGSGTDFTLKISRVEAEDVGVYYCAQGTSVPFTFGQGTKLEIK
0
dBBDu183H V100iE / dBBDu072L (antibody, name in Kabat numbering, V domains shown) VH: QVQLVESGGGLVQPGRSLRLSCAASGFTFSNAWMHWVRQAPGKGLEWVAQIKDKGNAYAAYYAPSVKGRFTISRDDSKNSIYLQMNSLKTEDTAVYYCHYVHYASASTVLPAFGEDAWGQGTTVTVSS VL: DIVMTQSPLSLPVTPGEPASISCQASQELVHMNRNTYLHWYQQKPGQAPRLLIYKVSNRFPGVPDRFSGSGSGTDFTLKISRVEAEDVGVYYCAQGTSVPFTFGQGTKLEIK
0

Kindly review the next binder as well.
What value of fold change of affinity has been recorded for this entry: dBBDu183H V95T / dBBDu072L (antibody, name in Kabat numbering, V domains shown) VH: QVQLVESGGGLVQPGRSLRLSCAASGFTFSNAWMHWVRQAPGKGLEWVAQIKDKGNAYAAYYAPSVKGRFTISRDDSKNSIYLQMNSLKTEDTAVYYCHYTHYASASTVLPAFGVDAWGQGTTVTVSS VL: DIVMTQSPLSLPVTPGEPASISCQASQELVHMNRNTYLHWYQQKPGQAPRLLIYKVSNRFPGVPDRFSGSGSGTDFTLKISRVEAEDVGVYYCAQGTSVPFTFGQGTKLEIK 0
